- Tested on: SH-SY5Y cells
- PROTOCOL_DESCRIPTION: sAPPβ release assay
- PROTOCOL_CONDITIONS: Homo sapiens, SH-SY5Y, read-out: IC50 Cell (sAPPβ release, nM), SH-SY5Y cells, compounds incubated 16-17 h
QUANTITY_NAME: IC50
Reply with the number, then its unit.

// below: answered compounds
[2H]C1([2H])OC(N)=N[C@]12c1cc(-c3ccnnc3)ccc1C[C@@]21CC[C@H](OC)[C@@H](C)C1 [Compound 115] = 13 nM
[2H]C1([2H])OC(N)=N[C@]12c1cc(-c3cc(F)cc(C#N)c3)ccc1C[C@@]21CC[C@H](OC)[C@@H](C)C1 [Compound 19] = 2 nM
[2H]C([2H])([2H])O[C@H]1CC[C@@]2(Cc3ccc(-c4cnccc4F)cc3[C@]23N=C(N)OC3([2H])[2H])C[C@@H]1C [Compound 104] = 0.7 nM
[2H]C1([2H])OC(N)=N[C@]12c1cc(-c3cncc(Cl)c3)ccc1C[C@@]21CC[C@H](OC)[C@@H](C)C1 [Compound 4] = 0.39 nM
[2H]C1([2H])OC(N)=N[C@]12c1cc(-c3cncc(F)c3)ccc1C[C@@]21CC[C@H](OC)[C@@H](C)C1 [Compound 9] = 0.5 nM

Entry [2H]C1([2H])OC(N)=NC12c1cc(-c3cncnc3)ccc1C[C@]21CC[C@@H](O)[C@H](C)C1 (some centres unmarked) [Compound 57] — recorded IC50 = 94.8 nM

----------
Known IC50 of a selection of compounds
- System: SH-SY5Y cells
- PROTOCOL_DESCRIPTION: sAPPβ release assay
- PROTOCOL_CONDITIONS: Homo sapiens, SH-SY5Y, read-out: IC50 Cell (sAPPβ release, nM)
Just the number in nM, nothing appended.

[2H]C1([2H])OC(N)=N[C@]12c1cc(-c3cncnc3)ccc1C[C@]21CC[C@@H](OC)CC1 [Compound 118] = 6

Entry CO[C@@H]1CC[C@]2(Cc3ccc(-c4cncnc4)cc3[C@@]23COC(N)=N3)C[C@H]1C [Compound 33] — recorded IC50 = 2.2

Entry [2H]C1([2H])OC(N)=N[C@]12c1cc(-c3cncnc3)ccc1C[C@]21CC[C@@H](OC)[C@H](CC)C1 [Compound 75] — recorded IC50 = 0.9

----------
- TGT: Human BACE2 (Homo sapiens)
- Construct: the soluble part of the human β-Secretase2 (AA1-AA473) was cloned using BACE2(1-473)-(AVT)-Fc-pDEST12.2 mammalian expression vector; AVT linker (C); made in house
- Sequence (Q9Y5Z0 21-473): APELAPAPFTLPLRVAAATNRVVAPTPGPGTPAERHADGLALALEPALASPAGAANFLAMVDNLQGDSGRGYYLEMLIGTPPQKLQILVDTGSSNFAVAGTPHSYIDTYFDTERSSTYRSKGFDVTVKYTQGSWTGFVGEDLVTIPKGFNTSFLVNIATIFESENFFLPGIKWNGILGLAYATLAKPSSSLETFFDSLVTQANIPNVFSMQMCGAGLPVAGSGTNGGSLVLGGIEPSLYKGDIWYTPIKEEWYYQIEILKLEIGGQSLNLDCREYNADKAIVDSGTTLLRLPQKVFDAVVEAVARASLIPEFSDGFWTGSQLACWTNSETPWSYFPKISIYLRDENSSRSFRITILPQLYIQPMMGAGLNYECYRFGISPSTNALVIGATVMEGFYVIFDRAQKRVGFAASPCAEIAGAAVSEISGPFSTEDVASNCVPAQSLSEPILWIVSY
- PROTOCOL_DESCRIPTION: TR-FRET assay
- Format: biochemical
- PROTOCOL_CONDITIONS: enzyme 2.7 μg/mL, substrate 100 nM, pH4.5
Where a name gives a salt, the structure may show the parent alone.
QUANTITY_NAME: pIC50
Field pIC50 (float): negative decimal logarithm of the concentration in molar.

Entry [2H]C1([2H])OC(N)=N[C@]12c1cc(-c3cncc(C)c3)ccc1C[C@]21CC[C@@H](OC)[C@H](C)C1 — recorded pIC50 = 6.73

Entry [2H]C([2H])([2H])O[C@H]1CC[C@@]2(Cc3ccc(-c4cc(Cl)cnc4F)cc3[C@]23N=C(N)OC3([2H])[2H])C[C@@H]1C — recorded pIC50 = 7.26

Entry [2H]C1([2H])OC(N)=N[C@]12c1cc(-c3cccnc3)ccc1C[C@@]21CC[C@H](OC)[C@@H](C)C1 — recorded pIC50 = 6.15

Entry COc1cc(C#N)cc(-c2ccc3c(c2)C2(COC(N)=N2)C(N2CCOCC2)C3)c1 (centres unmarked) — recorded pIC50 = 5.86

Entry [2H]C([2H])([2H])O[C@H]1CC[C@@]2(Cc3ccc(-c4cncc(C#N)c4)cc3[C@]23N=C(N)OC3([2H])[2H])C[C@@H]1C — recorded pIC50 = 7.15

Entry [2H]C1([2H])OC(N)=NC12c1cc(/C=N/OCCC)ccc1C[C@]21CC[C@@H](OC)CC1 (some centres unmarked) — recorded pIC50 = 6.19

Entry [2H]C1([2H])OC(N)=N[C@]12c1cc(-c3cncc(C4CC4)c3)ccc1C[C@]21CC[C@@H](OC)[C@H](C)C1 [Compound 1, formate Salt] — recorded pIC50 = 6.84

Entry [2H]C1([2H])OC(N)=N[C@]12c1cc(-c3cc(F)cc(C#N)c3)ccc1C[C@@]21CC[C@H](OC)[C@@H](C)C1 — recorded pIC50 = 7.36

Entry CO[C@H]1[C@H](C)C[C@@]2(Cc3ccc(-c4cncc(C#N)c4)cc3[C@@]23COC(N)=N3)C[C@@H]1C — recorded pIC50 = 7.04

Entry [2H]C1([2H])OC(N)=N[C@]12c1cc(C#N)ccc1C[C@@]21CC[C@H](OC)[C@@H](C)C1 — recorded pIC50 = 5.79

Entry COCCC1(C)Cc2ccc(-c3cc(C#N)cc(OC)c3)cc2C12COC(N)=N2 (centres unmarked) — recorded pIC50 = 5.92

----------
- TGT: Human BACE1 (Homo sapiens, UniProt P56817)
- Sequence (P56817 22-460): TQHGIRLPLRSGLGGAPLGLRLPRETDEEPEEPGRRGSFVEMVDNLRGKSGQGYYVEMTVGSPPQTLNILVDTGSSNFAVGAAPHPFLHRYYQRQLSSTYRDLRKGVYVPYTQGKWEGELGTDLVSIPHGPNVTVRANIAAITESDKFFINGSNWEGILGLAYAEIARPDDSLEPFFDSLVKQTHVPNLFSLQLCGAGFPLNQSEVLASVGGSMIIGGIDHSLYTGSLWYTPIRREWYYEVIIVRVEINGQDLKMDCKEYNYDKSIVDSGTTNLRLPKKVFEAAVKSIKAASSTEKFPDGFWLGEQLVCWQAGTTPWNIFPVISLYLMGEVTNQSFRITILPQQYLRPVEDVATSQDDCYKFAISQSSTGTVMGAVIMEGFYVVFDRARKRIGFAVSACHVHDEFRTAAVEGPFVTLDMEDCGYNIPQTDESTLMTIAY
Known pIC50 of a selection of compounds
Field pIC50 (float): negative decimal logarithm of the concentration in molar.

// below: answered compounds
[2H]C1([2H])OC(N)=NC12c1cc(-c3cc(Cl)cc(C#N)c3)ccc1C[C@@]21C[C@@H](C)[C@H](OC)[C@@H](C)C1 (stereo partly shown) [Compound 39] = 8.33
CO[C@H]1CC[C@]2(CC1)Cc1ccc(-c3cncc(C#N)c3)cc1[C@@]21COC(N)=N1 = 6.78
CO[C@H]1[C@H](C)C[C@@]2(Cc3ccc(-c4cncc(C#N)c4)cc3[C@@]23COC(N)=N3)C[C@@H]1C = 7.61
[2H]C1([2H])CC2(N=C(N)O1)c1cc(-c3cc(C#N)cc(OC)c3)ccc1C[C@]21CC[C@@H](OC)CC1 (stereo partly shown) = 7.50
[2H]C1([2H])OC(N)=N[C@]12c1cc(-c3cc(C#N)cc(OC)c3)ccc1C[C@]21CC[C@@H](OC)[C@H](C)C1 = 7.74

Now consider the entry below.
Summary line: [2H]C1([2H])OC(N)=N[C@]12c1cc(C#N)ccc1C[C@]21CC[C@@H](OC)[C@H](C)C1 , Human BACE1 (Homo sapiens, UniProt P56817), reported pIC50 = 6.53

----------
- Test system: SH-SY5Y cells
- PROTOCOL_DESCRIPTION: sAPPβ release assay
- PROTOCOL_CONDITIONS: Homo sapiens, SH-SY5Y, read-out: IC50 Cell (sAPPβ release, nM), SH-SY5Y cells, compounds incubated 16-17 h
QUANTITY_NAME: log10(IC50) (log10 of the value in nM)
Use the decimal logarithm of IC50 (nM).

// below: answered compounds
[2H]C1([2H])OC(N)=NC12c1cc(OCCC(F)(F)F)ccc1C[C@]21CC[C@@H](OC)CC1 (some centres unmarked) [Compound 45] = 0.89
[2H]C([2H])([2H])O[C@@H]1CC[C@]2(Cc3ccc(-c4cncc(F)c4)cc3[C@]23N=C(N)OC3([2H])[2H])C[C@H]1C [Compound 79] = 0.32
[2H]C1([2H])OC(N)=NC12c1cc(-c3cc(F)cc(F)c3)ccc1C[C@@]21CC[C@H](OC)[C@@H](C)C1 (some centres unmarked) [Compound 110] = 1.00

Summary line: [2H]C([2H])([2H])O[C@@H]1CC[C@]2(Cc3ccc(-c4cncc(C#N)c4)cc3[C@]23N=C(N)OC3([2H])[2H])C[C@H]1C [Compound 108] , SH-SY5Y cells, reported log10(IC50) = 0.18

Summary line: [2H]C1([2H])OC(N)=N[C@]12c1cc(-c3cc(F)cnc3F)ccc1C[C@@]21CC[C@H](OC)[C@@H](C)C1 [Compound 76] , SH-SY5Y cells, reported log10(IC50) = -0.30
